Biological target: NET (Homo sapiens)
Sequence (P23975 whole entry): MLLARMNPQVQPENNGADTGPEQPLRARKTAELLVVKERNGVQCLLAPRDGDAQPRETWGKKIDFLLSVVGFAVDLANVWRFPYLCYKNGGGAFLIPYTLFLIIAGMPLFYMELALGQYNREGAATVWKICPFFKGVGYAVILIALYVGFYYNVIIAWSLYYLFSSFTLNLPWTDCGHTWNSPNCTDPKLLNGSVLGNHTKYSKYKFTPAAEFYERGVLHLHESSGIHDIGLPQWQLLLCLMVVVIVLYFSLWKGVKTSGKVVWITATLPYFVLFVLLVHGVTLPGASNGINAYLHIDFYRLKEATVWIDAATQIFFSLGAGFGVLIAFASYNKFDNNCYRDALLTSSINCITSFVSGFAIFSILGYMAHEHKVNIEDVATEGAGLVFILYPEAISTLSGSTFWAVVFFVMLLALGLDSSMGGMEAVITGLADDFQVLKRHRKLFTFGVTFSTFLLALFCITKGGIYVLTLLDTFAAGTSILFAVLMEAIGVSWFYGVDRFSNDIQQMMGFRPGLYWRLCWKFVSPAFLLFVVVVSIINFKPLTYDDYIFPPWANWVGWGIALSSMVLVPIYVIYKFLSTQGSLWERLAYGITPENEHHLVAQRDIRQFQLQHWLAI
Experiment: Neurotransmitter transporter uptake assay, blocker
pIC50: −log10 of the molar value.

structureAsSmiles: CN(C)CCc1c[nH]c2cccc(OC(=O)CC3CC3)c12
pIC50: < 4.00

structureAsSmiles: COc1ccc(C(=O)Oc2cccc3[nH]cc(CCN(C)C)c23)cc1
pIC50: < 4.00

structureAsSmiles: CN(C)CCc1c[nH]c2cccc(OC(=O)c3c(F)c(F)c(F)c(F)c3F)c12
pIC50: < 4.00
